test: soluble on expression in E. coli; label from the status in PepcDB or PDB records
Assay metric: soluble on expression in E. coli

MNFIYPAVIAAVQEGEKAWGTTHPNPPVGAVVLSSNGSIVGRGHTQPPGGSHAEIMALRQAGENTKGGTLVVTLEPCNHWGRTGPCSHAISESGIEHVVYLMQDTGSLEKGGAEYLRRQGLKVTFLGLSVAALIPWQASKDRGWPYVVGKTAHTLDGFVAAEDHSSKWITGSASRDYANRQRRHFDAIIVGTGTVKADNPALTARKDDGTLLPHQPLKVVIGTSKISEGTQLARSGFVQFSTIEEALVQLWDRGVRYVLVEGGPHLLHGFLTSGNLDQLHSYSAPMLLTRGVSLLQEEEKKSAESANTTIASALRGSPQSISMLGDDILQVINI: not soluble
MPYKAKSDLPDNVRNVLPAHAQDIYKEAFNSAWEQYKDKADRRDDASREETAHKVAWAAVKNDYEKGEDDKWHKKK: not soluble

// data source = the DeepSol protein solubility set
